# Test system: ATP;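 note: ATP exposure 15 min at 22 °C before imaging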
# assay text: switch fluorescence ratio, 500 uM ATP over buffer (Cy3 cluster intensity, sum of 5 cycles each) (fold (ratio)); higher = stronger signal-on switching upon ATP binding; sequences stand for … in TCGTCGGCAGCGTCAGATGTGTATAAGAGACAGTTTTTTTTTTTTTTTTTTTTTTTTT…TC
# condition description: aptamer strand: ATP DNA aptamer (quencher-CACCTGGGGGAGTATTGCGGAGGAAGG + anchor), 100 nM annealed; ATP concentration: 500 uM
Reported values of switch fluorescence ratio for individual entries

{"residue codes": "GATTGTAAAG", "target under test": "ATP", "switch fluorescence ratio": 1.02}
{"residue codes": "CAGAGGCCCG", "target under test": "ATP", "switch fluorescence ratio": 1.02}
{"residue codes": "TTCGGTCCGT", "target under test": "ATP", "switch fluorescence ratio": 0.981}
{"residue codes": "TTAATTTGAA", "target under test": "ATP", "switch fluorescence ratio": 0.997}
{"residue codes": "GATTGGCAGC", "target under test": "ATP", "switch fluorescence ratio": 1.02}
{"residue codes": "GCACTTGGGG", "target under test": "ATP", "switch fluorescence ratio": 0.998}
{"residue codes": "TTGGAGTGTT", "target under test": "ATP", "switch fluorescence ratio": 0.999}
{"residue codes": "CGGCTGGTGG", "target under test": "ATP", "switch fluorescence ratio": 1.02}
{"residue codes": "GAAAAAGAGA", "target under test": "ATP", "switch fluorescence ratio": 0.974}
{"residue codes": "TTATGGTCGG", "target under test": "ATP", "switch fluorescence ratio": 0.984}
{"residue codes": "AAATGGGGTC", "target under test": "ATP", "switch fluorescence ratio": 0.998}
{"residue codes": "GATTTTTCAA", "target under test": "ATP", "switch fluorescence ratio": 1}
{"residue codes": "TTATGTGTCG", "target under test": "ATP", "switch fluorescence ratio": 0.983}
{"residue codes": "AATGTTATGG", "target under test": "ATP", "switch fluorescence ratio": 0.98}
{"residue codes": "TATAGCTTGG", "target under test": "ATP", "switch fluorescence ratio": 1}
{"residue codes": "TATTCAATTT", "target under test": "ATP", "switch fluorescence ratio": 1}
{"residue codes": "GAACTGCGGA", "target under test": "ATP", "switch fluorescence ratio": 1.01}
{"residue codes": "ACTTGGGGTA", "target under test": "ATP", "switch fluorescence ratio": 0.992}
{"residue codes": "AGCTTAGGGA", "target under test": "ATP", "switch fluorescence ratio": 0.99}
{"residue codes": "CGTCTAACGC", "target under test": "ATP", "switch fluorescence ratio": 1.02}
{"residue codes": "AGATAAATCA", "target under test": "ATP", "switch fluorescence ratio": 0.978}
{"residue codes": "GCATCTTGGG", "target under test": "ATP", "switch fluorescence ratio": 1}
{"residue codes": "GCTCGTCGGC", "target under test": "ATP", "switch fluorescence ratio": 0.999}
{"residue codes": "AATTTAAATG", "target under test": "ATP", "switch fluorescence ratio": 0.977}
{"residue codes": "ATAGACGTAT", "target under test": "ATP", "switch fluorescence ratio": 1.01}
{"residue codes": "GATGTATGTA", "target under test": "ATP", "switch fluorescence ratio": 0.973}
{"residue codes": "TGGCAGGTTG", "target under test": "ATP", "switch fluorescence ratio": 1.01}
{"residue codes": "AGCGTTTATA", "target under test": "ATP", "switch fluorescence ratio": 1.02}
{"residue codes": "CCGTTCTCGC", "target under test": "ATP", "switch fluorescence ratio": 1.31}
{"residue codes": "TGCGGGATGA", "target under test": "ATP", "switch fluorescence ratio": 1.04}
{"residue codes": "ATTGTGAACG", "target under test": "ATP", "switch fluorescence ratio": 1}
{"residue codes": "CGCTGTCACG", "target under test": "ATP", "switch fluorescence ratio": 1.06}
{"residue codes": "TGTTGTAGCG", "target under test": "ATP", "switch fluorescence ratio": 0.975}
{"residue codes": "TATATCTGAC", "target under test": "ATP", "switch fluorescence ratio": 1.16}
{"residue codes": "AGGCGGGGGT", "target under test": "ATP", "switch fluorescence ratio": 1.02}
{"residue codes": "AAGTCTGTTA", "target under test": "ATP", "switch fluorescence ratio": 0.994}
{"residue codes": "ATCGGCATGC", "target under test": "ATP", "switch fluorescence ratio": 1.19}
{"residue codes": "GGGGGGTCCC", "target under test": "ATP", "switch fluorescence ratio": 0.996}
{"residue codes": "TACGGTTACT", "target under test": "ATP", "switch fluorescence ratio": 1.27}
{"residue codes": "AGTTTGATG", "target under test": "ATP", "switch fluorescence ratio": 0.986}
{"residue codes": "ATCTGAGTTA", "target under test": "ATP", "switch fluorescence ratio": 1.03}
{"residue codes": "TTAGAAAACT", "target under test": "ATP", "switch fluorescence ratio": 1}
{"residue codes": "AACAGGGTGG", "target under test": "ATP", "switch fluorescence ratio": 1.02}
{"residue codes": "CGGGGGGTAC", "target under test": "ATP", "switch fluorescence ratio": 1.03}
{"residue codes": "TAGCTGTTCG", "target under test": "ATP", "switch fluorescence ratio": 0.989}
{"residue codes": "ATTTATTCTA", "target under test": "ATP", "switch fluorescence ratio": 0.976}
{"residue codes": "AACCACTTTA", "target under test": "ATP", "switch fluorescence ratio": 1.06}
{"residue codes": "TCGTAAAGTT", "target under test": "ATP", "switch fluorescence ratio": 0.955}
{"residue codes": "TGTTTTTACC", "target under test": "ATP", "switch fluorescence ratio": 1.03}
{"residue codes": "GCTTGTATGA", "target under test": "ATP", "switch fluorescence ratio": 1.01}
{"residue codes": "ATAGGCACGG", "target under test": "ATP", "switch fluorescence ratio": 1}
{"residue codes": "TTACGGATGG", "target under test": "ATP", "switch fluorescence ratio": 1.03}
{"residue codes": "GGGGGAGCAC", "target under test": "ATP", "switch fluorescence ratio": 0.997}
{"residue codes": "GGGTCTTGGC", "target under test": "ATP", "switch fluorescence ratio": 1.04}
{"residue codes": "TTTTTATTTT", "target under test": "ATP", "switch fluorescence ratio": 1.01}
{"residue codes": "AGTTTCCTTT", "target under test": "ATP", "switch fluorescence ratio": 0.978}
{"residue codes": "GGTCTAGATA", "target under test": "ATP", "switch fluorescence ratio": 0.99}
{"residue codes": "TGTGATTTGT", "target under test": "ATP", "switch fluorescence ratio": 0.97}
{"residue codes": "CTGAGTGGGA", "target under test": "ATP", "switch fluorescence ratio": 1.02}
{"residue codes": "GTGTTAAGTT", "target under test": "ATP", "switch fluorescence ratio": 0.987}
{"residue codes": "CAGTTGGACA", "target under test": "ATP", "switch fluorescence ratio": 0.967}
{"residue codes": "CAATTAACGG", "target under test": "ATP", "switch fluorescence ratio": 1.04}
{"residue codes": "CGTGGTCAAC", "target under test": "ATP", "switch fluorescence ratio": 0.968}
{"residue codes": "AGAGTCACGG", "target under test": "ATP", "switch fluorescence ratio": 0.982}
{"residue codes": "AGCCTGTTAG", "target under test": "ATP", "switch fluorescence ratio": 0.989}
{"residue codes": "TAACAGGTTT", "target under test": "ATP", "switch fluorescence ratio": 0.989}
{"residue codes": "CGTTGCTCGG", "target under test": "ATP", "switch fluorescence ratio": 1}
{"residue codes": "CATTTTCTAA", "target under test": "ATP", "switch fluorescence ratio": 1.04}
{"residue codes": "TATAATAAGG", "target under test": "ATP", "switch fluorescence ratio": 1}
{"residue codes": "CACAGCGTCG", "target under test": "ATP", "switch fluorescence ratio": 1}
{"residue codes": "CTGATTCAGA", "target under test": "ATP", "switch fluorescence ratio": 0.98}
{"residue codes": "ATGGGAGGAT", "target under test": "ATP", "switch fluorescence ratio": 1.02}
{"residue codes": "TAATTTGTGT", "target under test": "ATP", "switch fluorescence ratio": 1.01}
{"residue codes": "TTGGGCGCAT", "target under test": "ATP", "switch fluorescence ratio": 0.99}

The measurements presented in this section are drawn from the supplement of paper PMC10126150.
